src = ChEMBL document CHEMBL5030532

assay: Half life in Sprague-Dawley rat at 10 mg/kg, po by LC-MS/MS analysis; assay type: ADME, organism-based; conditions: in vivo
QUANTITY: half-life (h)
Answers are plain numbers, in h.

Which measured half-life value corresponds to COc1cccc(C2CC(=O)c3cc(NC(=O)c4cc(OC)c(OC)c(OC)c4)ccc3O2)c1 (racemic) ?
5.85

---

experiment: Stability in rat plasma after 1 hr incubation by LC-MS/MS analysis; format: ADME, cell-free; conditions: read-out: Stability
QUANTITY: remaining at 1 h (%)
One number for each entry, in %.

Which measured remaining at 1 h value corresponds to COc1cccc(C2CC(=O)c3cc(NC(=O)c4cc(OC)c(OC)c(OC)c4)ccc3O2)c1 (racemic) ?
89
